TEST_SYSTEM: calmodulin-dependent phosphodiesterase (PDE)
ASSAY_PROCEDURE: Calmodulin inhibition action (calmodulin-dependent phosphodiesterase inhibition)
CONDITION_NOTES: CaM and CaM-PDE of bovine brain origin, [3H]-cGMP, 30° C., 10 minutes; read-out: PDE inhibition effect, IC50
VALUE_KIND: pIC50
Please note pIC50 is a logarithmic value: minus log10 of concentration in mol/L. Answer with that number alone.

Ask: What reported pIC50 corresponds to `COc1cc2c(CCN3CCN(c4cccc(Cl)c4C)CC3)nn(Cc3c[nH]cn3)c2cc1OC` on calmodulin-dependent phosphodiesterase (PDE)?
Result: 5.26

Every entry's value here was drawn from patent US5948913A.
